- Measurement protocol: SMARCA2 (BRM) function activators, primary screen, cell-based, luminescence, high throughput (AID 652017);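 also: 0% = vehicle wells and 100% = reference activator wells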
- Measurement setup: MG213 cells, MMTV-luciferase reporter, dexamethasone, overnight; at 9.1 µM; active compounds read high
About 3,800 (1%) of roughly 370,000 compounds were called active. Many of the other results were omitted from the sample, so actives are more common in it than they were.
Task for the reader: assign each of the following compounds its reported activation.
Give bare numbers, in %.

Use the examples below as a reference point.
CCOC(=O)c1c(NC(=S)SC)sc(C(=O)N2CCc3ccccc3C2)c1C
-2.6
CCn1c2ccccc2c2cc(NC(=O)CSc3nnc(-c4ccccc4)n3-c3ccc(C)cc3)ccc21
-2.83
CCc1ccc(NC(=O)N2CCc3ccccc3C2)cc1
7.91
CCOC(=O)c1sc2nc(C)nc(SCC(N)=O)c2c1C
-1.05
COc1ccc(-c2cc(C(F)(F)F)nc(S(C)(=O)=O)n2)cc1OC
-11.1
Cc1cccc(OC(C)C(=O)N2CCc3ccccc3C2)c1 (stereo unspecified)
-2.36
CSc1nnc(SCc2nc3sc(C(=O)O)c(C)c3c(=O)[nH]2)s1
-1.68
O=C(C(=O)N1CCc2ccccc2C1)c1c[nH]c2ccccc12
0.35

Below are 3 compounds. Give each one its activation.
1. Cc1cccc(C)c1NC(=O)c1ccc(CN2CCc3ccccc3C2)cc1
2. O=C(Nc1cccc([N+](=O)[O-])c1)N1CCc2ccccc2C1
3. C/C(=N\c1nc2ccccc2n1C)c1cc(Cl)ccc1O

A.
[-1.14, 12.9, 0.8]

* * *

- Measurement protocol: SMARCA2 (BRM) function activators, primary screen, cell-based, luminescence, high throughput (AID 652017);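 also: 0% = vehicle wells and 100% = reference activator wells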
- Measurement setup: MG213 cells, MMTV-luciferase reporter, dexamethasone, overnight; at 9.1 µM
About 3,800 (1%) of roughly 370,000 compounds were called active. No stated cut-off is given here; in the data, active means activation above about 7.8%; inactive means the rest. This is one part of a sample in which actives are shown more often than they occur.
Tick one outcome: 1 (yes) for active, 0 (no) for inactive

Check out these entries, answers already filled in.
CN(C)CCNC(=O)c1ccc(Cl)c2cc3ccccc3nc12
1 (yes)
CC1C(=O)Nc2ccccc2N1C(=O)c1c(F)cccc1F (stereo not drawn)
0 (no)
Cc1noc(C)c1NC(=O)Nc1cccc2c1O[C@H](CN(C)S(=O)(=O)c1c(C)noc1C)[C@@H](C)CN([C@H](C)CO)C2=O
0 (no)
Cc1cc(C)n(C(=O)CCNC(=O)c2ccccc2Cl)n1
0 (no)
O=C(NCCS(=O)(=O)NCc1ccc(Cl)cc1)c1ccccc1
0 (no)
O=C(NCc1ccc(Cl)cc1)C1CCCN(c2nc3ccccc3o2)C1 (stereo not drawn)
0 (no)

Q. Called result for Cc1ccc(NC(=O)c2cc(C)nn2-c2ccccc2)c(C)c1
A. 0 (no)

Q. Called result for COc1cccc(CSc2nnc(-c3cccnc3)n2Cc2ccccc2)c1
A. 0 (no)

Q. Called result for COc1ccc(CCNC(=O)CCNS(=O)(=O)c2cc(Br)cnc2N)cc1OC
A. 0 (no)

Q. Called result for Cc1ccc2nnn(Cc3cccc(C(C)(C)C)c3O)c2c1
A. 0 (no)

Q. Called result for COc1ccc(-n2c(SCC(=O)Nc3ccccc3-c3ccccc3)nnc2-c2cccnc2)cc1
A. 0 (no)

Q. Called result for C=C1C(=O)[C@]23C[C@H]1CCC2[C@@]1(C)C(C[C@@H]3O)[C@](C)(C(=O)O)CC[C@@H]1O (stereo partly drawn)
A. 1 (yes)

Q. Called result for C#CCN([C@H](C(=O)OC)C(C)CC)S(=O)(=O)c1ccccc1Br (stereo partly drawn)
A. 0 (no)

Q. Called result for CC(C)NC(=O)C(=O)NCCN1CCN(S(=O)(=O)c2ccc(Cl)cc2)CC1
A. 0 (no)

Q. Called result for CCCn1nc(C(=O)Nc2ccc3nc(C)sc3c2)c2ccccc2c1=O
A. 1 (yes)

Q. Called result for Cc1ccc(S(=O)(=O)NC2CCCCCC2)cc1C(N)=O
A. 0 (no)

Q. Called result for S=C(NCCCc1cnc[nH]1)NCCCN(Cc1ccc(Cl)c(Cl)c1)c1ccc(Br)cn1
A. 0 (no)

Q. Called result for CC(C)c1ccc(S(=O)(=O)NC2CCCC2)cc1
A. 0 (no)

Q. Called result for COC(=O)C1CN(CCc2ccccc2)CCS(=O)(=O)N1Cc1cccc(Cl)c1 (stereo not drawn)
A. 0 (no)

* * *

- Measurement protocol: SMARCA2 (BRM) function activators, primary screen, cell-based, luminescence, high throughput (AID 652017);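 also: 0% = vehicle wells and 100% = reference activator wells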
- Measurement setup: MG213 cells, MMTV-luciferase reporter, dexamethasone, overnight; at 9.1 µM; active compounds read high
About 3,800 (1%) of roughly 370,000 compounds were called active. The full list was thinned out, with actives kept by preference.
Task for the reader: assign each of the following compounds its reported activation.
One number for each entry, in %.

CCN(C(=O)[C@@H](C1CC1)[C@@H](O)c1ccc2ccccc2c1)c1ccccc1
-7.28
O=C(NC1CCCCN(Cc2cccc(C(F)(F)F)c2)C1=O)c1ccccc1I (configuration not stated)
-2.23
CN(C(N)=NC(=O)/C=C/c1ccccc1)C(C#Cc1ccccc1)Cc1ccccc1 (configuration not stated)
-4.38
O=C(CCl)NC1CCCCN(Cc2cccc(C(F)(F)F)c2)C1=O (configuration not stated)
-2.12
Cc1cc(OC(=O)c2ccc(OC(C)C)cc2)c([N+](=O)[O-])c(=O)[nH]1
-2.6

Below are 3 compounds. Give each one its activation.
1. O=C(C1CCCO1)N(Cc1ccccc1)c1ccccc1 (configuration not stated)
2. COc1ccc(COCC(O)CN2CCC(C(N)=O)CC2)cc1 (configuration not stated)
3. O=C(Nc1nnc(CCc2ccccc2)s1)C1CCCO1 (configuration not stated)

A.
1. -1.33
2. -2.59
3. 8.46

Below are 4 compounds. Give each one its activation.
1. COC(=O)[C@]12C[C@H](CC(=O)N3CCN(C(=O)C4CC4)CC3)C(=O)N(CCC3=CCCCC3)C1=C[C@H](C(C)C)O[C@@H]2C1CC1
2. Cc1cc(OC(=O)c2ccccc2)c([N+](=O)[O-])c(=O)[nH]1
3. Cc1sc2nc(SCC(=O)c3ccc(O)c(O)c3)n(Cc3ccco3)c(=O)c2c1C
4. COC(=O)[C@]12C[C@H](CC(=O)NCc3ccc(C)o3)C(=O)N(CCC3=CCCCC3)C1=C[C@H](C(C)(C)C)O[C@@H]2C

A.
1: 0.49; 2: 7.86; 3: -5.31; 4: 3.47

Below are 2 compounds. Give each one its activation.
1. O=C(NCc1ccccc1Cl)C1CCCO1 (configuration not stated)
2. CN(CCc1ccccc1)C(=O)Cn1nc(-c2ccccc2)ccc1=O

A.
-4.52
-2.33

Below are 3 compounds. Give each one its activation.
1. COc1ccc(/C=C2\CC3(OC(C)=O)CCCN2C3)cc1 (configuration not stated)
2. COc1ccc(CCN2C(=O)CC(N3CCC(C(N)=O)CC3)C2=O)cc1OC (configuration not stated)
3. Cc1nn(Cc2ccc(F)cc2)c(C)c1NC(=O)c1noc2c1CCc1ccccc1-2

A.
-1.45
-1.41
-4.67

Below are 5 compounds. Give each one its activation.
1. C/C(=N\NC(=S)NCc1ccccc1)C1CCCCC1
2. COC(=O)C1=C(C)N(Cc2ccc(F)cc2)C(=S)NC1c1cccc(Cl)c1 (configuration not stated)
3. COc1cc(CN2CCC(C(N)=O)CC2)ccc1OCc1ccccc1
4. COc1cccc(C(=O)Oc2cc(C)[nH]c(=O)c2[N+](=O)[O-])c1
5. Cn1c(Cc2cccs2)nnc1SCC(=O)Nc1ccccc1

A.
[1.15, -3.14, 10.4, 0.69, 4.18]

* * *

Task for the reader: assign each of the following compounds its reported activation.
- Measurement protocol: SMARCA2 (BRM) function activators, primary screen, cell-based, luminescence, high throughput (AID 652017);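 also: 0% = vehicle wells and 100% = reference activator wells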
- Measurement setup: MG213 cells, MMTV-luciferase reporter, dexamethasone, overnight; at 9.1 µM; active compounds read high
Out of some 370,000 compounds screened, about 3,800 (1%) were called active. The sample holds actives, similar compounds and a random draw of the others, so the mix is not that of the screen.
Give bare numbers, in %.

Use the examples below as a reference point.
CC(C)CSc1nnc(-c2cccnc2)n1Cc1ccccc1
-4.95
CCN(CC)C(=O)CC[C@@H]1CC[C@]2(CCCN(S(=O)(=O)C3CCCCC3)C2)O1
-3.43
COC(=O)c1cccc(Cn2ccc3ccc(-c4ccc5ccn(C(=O)c6ccccc6C)c5c4)cc32)c1
-2.21

Below are 2 compounds. Give each one its activation.
1. COc1cccc(/C=C2\CC3(OC(C)=O)CCCN2C3)c1 (stereo not given)
2. Cc1ccc(NC(=O)C(=O)NCc2ccc(/C=N/NC(=O)c3c(C)nc4cc(C)ccn34)o2)cc1

A.
1: 1.54; 2: -0.59

* * *

Task for the reader: assign each of the following compounds its reported activation.
- Measurement protocol: SMARCA2 (BRM) function activators, primary screen, cell-based, luminescence, high throughput (AID 652017);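 also: 0% = vehicle wells and 100% = reference activator wells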
- Measurement setup: MG213 cells, MMTV-luciferase reporter, dexamethasone, overnight; at 9.1 µM; active compounds read high
Hit rate of the full screen: of about 370,000 compounds, about 3,800 (1%) were called active. Only a selection was taken, and actives are over-represented in it overall.
Numbers only, in %.

Use the examples below as a reference point.
CCC(C(=O)NC(C)(C)C)n1c(-c2ccccc2)nc2ccccc21 (configuration not stated)
-0.72
Cn1c(=O)c(C(=O)Nc2ncccn2)c(O)c2ccccc21
2.91
COc1ccc(C(=O)OCCN2CCN(C3CN(Cc4cn(Cc5ccccc5F)nn4)S(=O)(=O)C3)CC2)cc1OC (configuration not stated)
-1.26
COc1ccccc1-c1sc2ccccc2c1-c1ccc(Br)nc1
-0.09
Cc1ccc(Cn2cc(CN3[C@@H](C)COc4cc(Br)ccc4S3(=O)=O)nn2)cc1
-6.23
CCOc1ccc(-n2c(SCC(=O)Nc3cc(C)c(NC(=O)c4ccccc4)cc3OC)nnc2-c2cccs2)cc1
-4.31
COC(=O)C1=C(C)N(Cc2ccccc2C(F)(F)F)C(=NCC2CC2)NC1c1cccc(Cl)c1 (configuration not stated)
-1.87
CC(C)N1CCCCC(NC(=O)C(C)(C)C)C1=O (configuration not stated)
0.13

Below are 5 compounds. Give each one its activation.
1. Cc1ccccc1OCCOc1ccc([N+](=O)[O-])cc1/C=N/n1cnnc1
2. COc1ccccc1C1=CC(=O)CCC1
3. Cc1cc(C)n2nc(CNS(=O)(=O)c3c(F)c(F)c(F)c(F)c3F)nc2n1
4. COC(=O)[C@]12C[C@H](CC(=O)NCC34CC5CC(CC(C5)C3)C4)C(=O)N(Cc3ccc(Cl)cc3Cl)C1=C[C@H](COCc1ccccc1)O[C@@H]2C
5. CCOC(=O)c1ccccc1NC(=O)c1c(N)n(C)c(=O)[nH]c1=O

A.
1. -1.85
2. 1.01
3. 9.77
4. -1.25
5. -0.83

Below are 3 compounds. Give each one its activation.
1. Cc1ccccc1C1=N/C(=C/c2cccnc2)C(=O)O1
2. O=C(NC1CCCC1)C1CSCCS(=O)(=O)N1Cc1ccccc1 (configuration not stated)
3. Cc1cc(C)n2nc(C(=O)NC(C)(C)C)nc2n1

A.
1: 10.3; 2: -0.49; 3: 1.51

Where do these numbers come from? They come from PubChem BioAssay AID652017.
